ASSAYED SYSTEM: KCNQ2/KCNQ3 potassium channel (Homo sapiens, UniProt O43525+O43526)
EXPERIMENT DESCRIPTION: KCNQ2/KCNQ3 potassium channel current, automated parallel patch clamp (PatchXpress 7000A)
Type: cell-based
MEASUREMENT CONTEXT: 30 μM test compound, 5 minutes exposure, channel expressed in mammalian cells, ambient temperature
MEASUREMENT KIND: Mean % Enhancement of KCNQ2/KCNQ3 (%)

[
  {
    "ITEM SMILES": "O=C(O)CNC(=O)Cc1cc(Nc2cc(Cl)cc(Cl)c2)ccc1F",
    "REPORTED": 162.5
  },
  {
    "ITEM SMILES": "O=C(Cc1cccc(Nc2c(Cl)cc(Cl)cc2Cl)c1)NCCO",
    "REPORTED": 168.2
  }
]

(1) O=C(O)CNC(=O)Cc1ccc(Nc2cc(Cl)cc(Cl)c2)cc1
(2) O=C(Cc1ccc(Nc2c(Cl)cc(C(F)(F)F)cc2Cl)cc1)NCCO
Input: Identify the entry with the smaller Mean % Enhancement of KCNQ2/KCNQ3: 1 or 2 . Response format: the label of the selected entry.
Output: 2
(2: 115.8%, 1: 181.9%)
